Tested on: SF-268
Assay: NCI tumour cell line growth inhibition, 48 h
The source made the active and inactive calls. Cut-off read from the data, not from the text of the source: active = GI50 up to about 1.1 µM and inactive = higher.
// allowed return values: active, inactive

# COMPOUND, SYSTEM_UNDER_TEST, LABEL_VALUE
rows = [
    ("CN1N=C(c2ccncc2)OC1c1ccccc1F (stereo unspecified)", "SF-268", "inactive"),
    ("COc1ccccc1/C=C1\\SC(=S)N(/C=C2\\C(=O)Oc3ccccc3C2=O)C1=O", "SF-268", "inactive"),
    ("[O-][s+]1c2c(Cc3ccccc3)c(Cc3ccccc3)c1CCc1cccc(c1)CC2", "SF-268", "inactive"),
]

Prompt: What did the test return for [N-]=[N+]=NCC1OCC(O)C(OCc2ccccc2)C1OCc1ccccc1 (stereo unspecified) ?
Completion: inactive

Prompt: What did the test return for C=CCn1c2ccccc2c2c(C)c3cnccc3c(C)c21 ?
Completion: inactive

Prompt: What did the test return for O=c1cccccc1NCCOCCNc1cccccc1=O ?
Completion: inactive

Prompt: What did the test return for Oc1ccc(Cl)cc1-c1cc(-c2ccccc2)nc(S)n1 ?
Completion: inactive

Prompt: What did the test return for O=C(Nc1ccc(N2C(=O)CSC2c2ccccc2O)cc1)c1ccc(N2C(=O)CSC2c2ccccc2O)cc1 (stereo unspecified) ?
Completion: inactive

Prompt: What did the test return for CCOC(=O)c1c[nH]c(C(=O)C=[N+]=[N-])c1C1CCN(CC)C1=S (stereo unspecified) ?
Completion: inactive

Prompt: What did the test return for CCCCCCCOc1ccc(/C=C\c2cc[n+](CCCCCCCC[n+]3ccc(/C=C\c4ccc(OCCCCCCC)cc4)cc3)cc2)cc1 ?
Completion: inactive

Prompt: What did the test return for COc1cccc(NC(=O)CC(=O)N2N=C(C)C(/N=N/c3ccc(S(=O)(=O)CCOS(=O)(=O)O)cc3)C2=O)c1 (stereo unspecified) ?
Completion: inactive

Prompt: What did the test return for CCCC(=O)[O-].[Na+] [SODIUM BUTYRATE] ?
Completion: inactive

Prompt: What did the test return for O=C(/C=C/c1ccsc1)c1cccs1 ?
Completion: inactive

Prompt: What did the test return for CCCCC(C(=O)C(=O)NC1C2CC3CC(C2)CC1C3)C(=O)C(C)C (stereo unspecified) ?
Completion: inactive

Prompt: What did the test return for CCOC(=O)/C(=N/Nc1ccc(C)cc1)N1C(=S)N(C)N=C(C)C=C1S ?
Completion: inactive

Prompt: What did the test return for CCOC(=O)C1=C(Nc2ccc(NC3=C(C(=O)OCC)C(=O)CS3)cc2)SCC1=O ?
Completion: inactive

Prompt: What did the test return for NS(=O)(=O)c1ccc(NC(=O)c2cccc3cc4ccccc4nc23)cc1 ?
Completion: inactive

Prompt: What did the test return for CCc1cc2c(cc1C(=O)CCC(=O)O)CC1(C2)Cc2cc(CC)c(C(=O)CCC(=O)O)cc2C1 ?
Completion: inactive

Prompt: What did the test return for CCOC(=O)c1c(N2CCCC2)nsc1Nc1ccc(F)cc1 ?
Completion: inactive

Prompt: What did the test return for CN(C)CCn1cnc2sc3ccccc3c21 ?
Completion: inactive

Prompt: What did the test return for CC(=O)NNc1nc(C)c(C(/C=C/c2ccccc2O)=N/NC(=O)c2ccncc2)s1 ?
Completion: inactive

---

Tested on: SK-OV-3
Test: NCI tumour cell line growth inhibition, 48 h
The source made the active and inactive calls. Cut-off read from the data, not from the text of the source: active = GI50 up to about 1.1 µM and inactive = higher.
RESULT_TYPE: GI50

Example entries begin here.
# MOLECULE, SYSTEM_UNDER_TEST, GI50
data = [
    ("C=CCCCC1(C)CCCCNC1=O (stereo not given)", "SK-OV-3", "> 10 µM (inactive)"),
    ("CCCc1nc(NC#N)nc(C(=O)NC23CC4CC(CC(C4)C2)C3)c1C", "SK-OV-3", "> 100 µM (inactive)"),
    ("Cn1cc(NC(=O)c2cc(NC(=O)CCCCCCCC(=O)Nc3cc(C(=O)Nc4cc(C(=O)NCCC(=N)N)n(C)c4)n(C)c3)cn2C)cc1C(=O)NCCC(=N)N", "SK-OV-3", "> 100 µM (inactive)"),
    ("Oc1ccc2ccccc2c1-c1c(Nc2ccccc2)ccc2ccccc12", "SK-OV-3", "6.08 µM (inactive)"),
]

Proceed to the following item.
GI50 reading for CC1=CC2C(C(C)C)CC1C1C(=O)OC(=O)C21 (stereo not given) : > 100 µM (inactive)
